src = patent US4603145A

Target: fatty acyl CoA:cholesterol acyl transferase (ACAT) (Rattus norvegicus, UniProt O70536)
Construct: The supernatant, containing the microsomal fraction, served as the source of the cholesterol-esterifying enzyme; from tissue; host or cells: rat adrenals (supernatant of homogenate, 1,000 x g, containing the microsomal fraction)
Assay: Inhibition of enzymatic esterification of cholesterol (ACAT), rat adrenal microsomal supernatant
Format: biochemical
Settings: final concentration of the test compound 5.2 μg./ml., 14C-oleoyl CoA, 37° C., read-out: % INHIBITION (percent inhibition of the ACAT enzyme compared to control values)
measured-parameter: inhibition at 5.2 µg/mL (%)

// worked examples, inhibition at 5.2 µg/mL included
Cc1ccc(C(CC(=O)NC23CC4CC(CC(C4)C2)C3)c2ccc(C)cc2)cc1; 76
O=C(CC(c1ccc(Cl)cc1)c1ccc(Cl)cc1)NC12CC3CC(CC(C3)C1)C2; 97

P: COc1ccc(C(CC(=O)NCCc2ccc(OC)c(OC)c2)c2ccc(OC)cc2)cc1
Q: CCCCN(Cc1ccccc1)C(=O)CC(c1ccc(Cl)cc1)c1ccc(Cl)cc1
**Query** From the items above, decide which of P and Q has the lower inhibition at 5.2 µg/mL reading. Mark your selection by writing its label.
**Result** Q

----------
Target: fatty acyl CoA:cholesterol acyl transferase (ACAT) (Rattus norvegicus)
Construct: The supernatant, containing the microsomal fraction, served as the source of the cholesterol-esterifying enzyme; from tissue; host or cells: rat adrenals (supernatant of homogenate, 1,000 x g, containing the microsomal fraction)
Assay: Inhibition of enzymatic esterification of cholesterol (ACAT), rat adrenal microsomal supernatant
Type: biochemical
Conditions: final concentration of the test compound 5.2 μg./ml., 14C-oleoyl CoA, 37° C., read-out: % INHIBITION (percent inhibition of the ACAT enzyme compared to control values)
measured-parameter: inhibition at 5.2 µg/mL (%)

NC(=O)CC(c1ccc(Cl)cc1)c1ccc(Cl)cc1 [3,3-Bis(p-chlorophenyl)propionamide]; 31

a: CCCCNC(=O)CC(c1ccc(Cl)cc1)c1ccc(Cl)cc1
b: O=C(CC(c1ccc(Cl)cc1)c1ccc(Cl)cc1)NCc1ccccc1
**Query** From the items above, decide which of a and b has the lower inhibition at 5.2 µg/mL reading. Mark your selection by writing its label.
**Result** b
(b: 35%, a: 92%)

----------
Target: fatty acyl CoA:cholesterol acyl transferase (ACAT) (Rattus norvegicus, UniProt O70536)
Construct: The supernatant, containing the microsomal fraction, served as the source of the cholesterol-esterifying enzyme; from tissue; host or cells: rat adrenals (supernatant of homogenate, 1,000 x g, containing the microsomal fraction)
Sequence (O70536 1-545): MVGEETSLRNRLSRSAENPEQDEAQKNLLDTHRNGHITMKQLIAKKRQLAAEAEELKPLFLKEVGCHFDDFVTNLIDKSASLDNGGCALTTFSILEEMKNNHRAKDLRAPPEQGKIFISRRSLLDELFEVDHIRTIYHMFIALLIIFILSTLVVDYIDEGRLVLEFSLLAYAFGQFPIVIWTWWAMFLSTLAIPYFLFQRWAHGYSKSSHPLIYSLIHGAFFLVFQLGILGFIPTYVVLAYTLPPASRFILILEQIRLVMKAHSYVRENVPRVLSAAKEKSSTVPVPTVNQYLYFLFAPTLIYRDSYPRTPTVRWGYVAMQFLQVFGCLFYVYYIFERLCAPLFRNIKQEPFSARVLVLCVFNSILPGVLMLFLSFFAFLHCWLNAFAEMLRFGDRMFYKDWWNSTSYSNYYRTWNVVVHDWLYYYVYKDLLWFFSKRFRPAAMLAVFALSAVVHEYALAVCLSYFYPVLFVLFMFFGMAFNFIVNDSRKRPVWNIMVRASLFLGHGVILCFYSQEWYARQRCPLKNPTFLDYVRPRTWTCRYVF
Assay: Inhibition of enzymatic esterification of cholesterol (ACAT), rat adrenal microsomal supernatant
Type: biochemical
Conditions: final concentration of the test compound 5.2 μg./ml., 14C-oleoyl CoA, 37° C., read-out: % INHIBITION (percent inhibition of the ACAT enzyme compared to control values)
measured-parameter: inhibition at 5.2 µg/mL (%)

// worked examples, inhibition at 5.2 µg/mL included
COc1ccc(C(CC(=O)N(Cc2ccccc2)Cc2ccccc2)c2ccc(OC)cc2)cc1; 87
CCCCN(CCCC)C(=O)CC(c1ccc(OC)cc1)c1ccc(OC)cc1; 95
O=C(CC(c1ccc(Cl)cc1)c1ccc(Cl)cc1)N(Cc1ccccc1)Cc1ccccc1; 93
CN(C)C(=O)CC(c1ccc(Cl)cc1)c1ccc(Cl)cc1; 68
Cc1ccc(C(CC(=O)N(Cc2ccccc2)Cc2ccccc2)c2ccc(C)cc2)cc1; 68

1: CCCCN(CCCC)C(=O)CC(c1ccc(C)cc1)c1ccc(C)cc1
2: CCCCN(CCCC)C(=O)CC(c1ccc(Cl)cc1)c1ccc(Cl)cc1
**Query** Form field 'greater inhibition at 5.2 µg/mL' accepts 1 or 2 ; which applies? Mark your selection by writing its label.
**Result** 1
(1: 94%, 2: 48%)
